What inhibition at 30 µM was measured for each of the following?
test system: IICR (IP3 induced calcium release) in CHO cells; test: Assay of IICR (IP3 induced calcium release)-inhibiting action; format: cell-based, Chinese hamster; settings: Cricetulus griseus, CHO, test compound 30 μmol; CHO cells, 10 μM ATP; read-out: IICR level (percentage of inhibition)
Express your answer in %, writing the number without its unit.

State inhibition at 30 µM on IICR (IP3 induced calcium release) in CHO cells. Entry: CC(C)N(CCC(=O)c1ccc(-c2ccccc2)cc1)Cc1ccccc1 [Example 297]
50

State inhibition at 30 µM on IICR (IP3 induced calcium release) in CHO cells. Entry: CC(CN(CCO)C(C)(C)C)C(=O)c1ccc(F)cc1 (stereo not shown) [Example 161]
0

State inhibition at 30 µM on IICR (IP3 induced calcium release) in CHO cells. Entry: O=C(CCN(CCO)CCO)c1ccncc1 [Example 249]
60

State inhibition at 30 µM on IICR (IP3 induced calcium release) in CHO cells. Entry: CC(C)(C)N(CCC(=O)c1ccccn1)Cc1ccccc1 [Example 94]
90

State inhibition at 30 µM on IICR (IP3 induced calcium release) in CHO cells. Entry: CC(CN(Cc1ccccc1)C(C)(C)C)C(=O)c1ccc(F)cc1 (stereo not shown) [Example 162]
0

State inhibition at 30 µM on IICR (IP3 induced calcium release) in CHO cells. Entry: O=C(CCCCl)c1ccncc1 [Example 192, 3-chloropropyl-4-pyridylketone]
0

State inhibition at 30 µM on IICR (IP3 induced calcium release) in CHO cells. Entry: Cc1ccc(C(=O)CCN(CCO)C(C)(C)C)o1 [Example 240]
30

----------
system: IICR (IP3 induced calcium release) in CHO cells; assay: Assay of IICR (IP3 induced calcium release)-inhibiting action; type: cell-based, Chinese hamster; conditions: Cricetulus griseus, CHO, test compound 100 μmol; CHO cells, 10 μM ATP; read-out: IICR level (percentage of inhibition)
measure name: inhibition at 100 µM (%)
Express your answer in %, writing the number without its unit.

For O=C(CCN(c1ccccc1)c1ccccc1)c1cccc2ccccc12 [Example 70, 2-N-diphenylaminoethyl naphthylketone] , write its inhibition at 100 µM.
40

For CCCCN(CCO)CCC(=O)c1cccnc1 [Example 180] , write its inhibition at 100 µM.
50

For CC(C)N(CCC(=O)c1ccc(Cl)cc1)Cc1ccccc1 [Example 310] , write its inhibition at 100 µM.
70

For Cc1ccc(C(=O)CCN(CCO)Cc2ccccc2)o1 [Example 139] , write its inhibition at 100 µM.
30

For CCC(CO)(CO)NCCC(=O)c1ccc(Br)s1 [Example 365] , write its inhibition at 100 µM.
70

For CN(CCO)CCC(=O)c1ccccn1 [Example 251] , write its inhibition at 100 µM.
0

----------
system: SOCE (store operated calcium entry) in CHO cells; test: Assay of SOCE (store operated calcium entry)-inhibiting action; type: cell-based, Chinese hamster; conditions: test compound 100 μmol; CHO cells, thapsigargin
measure name: SOCE level (percentage of inhibition) (%)
Express your answer in %, writing the number without its unit.

For CC(C)N(CCO)CCC(=O)c1ccco1 [Example 153] , write its SOCE level (percentage of inhibition).
10

For O=C(CCNCCCCNCCC(=O)c1ccc(Br)s1)c1ccc(Br)s1 , write its SOCE level (percentage of inhibition).
10

For CC(C)(C)N(CCC(=O)c1ccc(C#N)cc1)Cc1ccccc1 , write its SOCE level (percentage of inhibition).
10

Origin of measurements: patent US8937091B2
